- MEASURED TARGET: T1, human IGFBP-1 (human, UniProt P08833 26-259)
- T1 construct: mature; Secreted recombinant protein; also called IGFBP-I
- T1 sequence (looked up): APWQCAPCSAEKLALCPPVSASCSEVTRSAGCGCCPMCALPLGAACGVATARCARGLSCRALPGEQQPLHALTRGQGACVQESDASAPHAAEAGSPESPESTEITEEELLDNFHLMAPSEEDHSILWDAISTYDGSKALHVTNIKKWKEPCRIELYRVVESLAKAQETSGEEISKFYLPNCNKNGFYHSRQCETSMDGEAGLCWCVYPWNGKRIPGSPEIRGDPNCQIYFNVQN
- METHOD SUMMARY: competitive phage ELISA
Reported IC50 values follow for various binders
Give the value in nM but do not write nM after it.

binder="IGF-I E58A displayed on phage (ligand, On phage; G1S-A70V template; not shown: M13 gene III protein fragment (residues 249-406), the phage display carrier, and its junction to IGF-I) SPETLCGAELVDALQFVCGDRGFYFNKPTGYGSSSRRAPQTGIVDECCFRSCDLRRLAMYCAPLKPAKSV" unit_label=nM readout_number=11.9
binder="IGF-I Q15A displayed on phage (ligand, On phage; G1S-A70V template; not shown: M13 gene III fragment (residues 249-406), the display carrier, and its junction) SPETLCGAELVDALAFVCGDRGFYFNKPTGYGSSSRRAPQTGIVDECCFRSCDLRRLEMYCAPLKPAKSV" unit_label=nM readout_number=13.9

Ask: # lookup: IC50 of IGF-I S69A displayed on phage (ligand, not shown: large carriers; small tags and cut ends, On phage; G1S-A70V template) SPETLCGAELVDALQFVCGDRGFYFNKPTGYGSSSRRAPQTGIVDECCFRSCDLRRLEMYCAPLKPAKAV
Result: 12.8

Ask: // lookup IC50 for IGF-I M59A displayed on phage (ligand, On phage; G1S-A70V template; not shown: M13 gene III protein fragment (residues 249-406), the phage display carrier, and its junction to IGF-I) SPETLCGAELVDALQFVCGDRGFYFNKPTGYGSSSRRAPQTGIVDECCFRSCDLRRLEAYCAPLKPAKSV
Result: 13.1

Ask: May I ask what IC50 has been recorded for IGF-I N26A displayed on phage (ligand, On phage; G1S-A70V template; not shown: Display carrier: M13 gene III protein fragment (residues 249-406) and the junction to it) SPETLCGAELVDALQFVCGDRGFYFAKPTGYGSSSRRAPQTGIVDECCFRSCDLRRLEMYCAPLKPAKSV ?
Result: 9.1

Ask: What value of IC50 has been reported for the following binder? IGF-I S35A displayed on phage (ligand, not shown: large carriers, On phage; G1S-A70V template) SPETLCGAELVDALQFVCGDRGFYFNKPTGYGSSARRAPQTGIVDECCFRSCDLRRLEMYCAPLKPAKSV
Result: 11.7

Ask: # IC50 lookup, item IGF-I L5A displayed on phage (ligand, not shown: large carriers; small tags and cut ends, On phage; G1S-A70V template) SPETACGAELVDALQFVCGDRGFYFNKPTGYGSSSRRAPQTGIVDECCFRSCDLRRLEMYCAPLKPAKSV
Result: 55.3

Ask: Name the recorded IC50 for IGF-I L10A displayed on phage (ligand, On phage; G1S-A70V template; not shown: M13 gene III fragment (residues 249-406), the display carrier, and its junction) SPETLCGAEAVDALQFVCGDRGFYFNKPTGYGSSSRRAPQTGIVDECCFRSCDLRRLEMYCAPLKPAKSV .
Result: 311

Ask: Item under review: IGF-I D53A displayed on phage (ligand, On phage; G1S-A70V template; not shown: Display partner: M13 gene III protein fragment (residues 249-406, mature count) and the junction to it) SPETLCGAELVDALQFVCGDRGFYFNKPTGYGSSSRRAPQTGIVDECCFRSCALRRLEMYCAPLKPAKSV . Reported IC50?
Result: 15.3

Ask: Entry under review: IGF-I F25A displayed on phage (ligand, On phage; G1S-A70V template; not shown: Display carrier: M13 gene III protein fragment (residues 249-406) and the junction to it) SPETLCGAELVDALQFVCGDRGFYANKPTGYGSSSRRAPQTGIVDECCFRSCDLRRLEMYCAPLKPAKSV . Reported IC50?
Result: 181

Ask: IC50 lookup needed for IGF-I V17A displayed on phage (ligand, On phage; G1S-A70V template; not shown: M13 gene III fragment (residues 249-406), the display carrier, and its junction) SPETLCGAELVDALQFACGDRGFYFNKPTGYGSSSRRAPQTGIVDECCFRSCDLRRLEMYCAPLKPAKSV , thanks.
Result: 42.9
